Origin of measurements: patent US20140235643A1

# subject of test: PI3Kγ (Mus musculus)
# Construct: endogenous in cells
# Sequence (Q9JHG7 whole entry): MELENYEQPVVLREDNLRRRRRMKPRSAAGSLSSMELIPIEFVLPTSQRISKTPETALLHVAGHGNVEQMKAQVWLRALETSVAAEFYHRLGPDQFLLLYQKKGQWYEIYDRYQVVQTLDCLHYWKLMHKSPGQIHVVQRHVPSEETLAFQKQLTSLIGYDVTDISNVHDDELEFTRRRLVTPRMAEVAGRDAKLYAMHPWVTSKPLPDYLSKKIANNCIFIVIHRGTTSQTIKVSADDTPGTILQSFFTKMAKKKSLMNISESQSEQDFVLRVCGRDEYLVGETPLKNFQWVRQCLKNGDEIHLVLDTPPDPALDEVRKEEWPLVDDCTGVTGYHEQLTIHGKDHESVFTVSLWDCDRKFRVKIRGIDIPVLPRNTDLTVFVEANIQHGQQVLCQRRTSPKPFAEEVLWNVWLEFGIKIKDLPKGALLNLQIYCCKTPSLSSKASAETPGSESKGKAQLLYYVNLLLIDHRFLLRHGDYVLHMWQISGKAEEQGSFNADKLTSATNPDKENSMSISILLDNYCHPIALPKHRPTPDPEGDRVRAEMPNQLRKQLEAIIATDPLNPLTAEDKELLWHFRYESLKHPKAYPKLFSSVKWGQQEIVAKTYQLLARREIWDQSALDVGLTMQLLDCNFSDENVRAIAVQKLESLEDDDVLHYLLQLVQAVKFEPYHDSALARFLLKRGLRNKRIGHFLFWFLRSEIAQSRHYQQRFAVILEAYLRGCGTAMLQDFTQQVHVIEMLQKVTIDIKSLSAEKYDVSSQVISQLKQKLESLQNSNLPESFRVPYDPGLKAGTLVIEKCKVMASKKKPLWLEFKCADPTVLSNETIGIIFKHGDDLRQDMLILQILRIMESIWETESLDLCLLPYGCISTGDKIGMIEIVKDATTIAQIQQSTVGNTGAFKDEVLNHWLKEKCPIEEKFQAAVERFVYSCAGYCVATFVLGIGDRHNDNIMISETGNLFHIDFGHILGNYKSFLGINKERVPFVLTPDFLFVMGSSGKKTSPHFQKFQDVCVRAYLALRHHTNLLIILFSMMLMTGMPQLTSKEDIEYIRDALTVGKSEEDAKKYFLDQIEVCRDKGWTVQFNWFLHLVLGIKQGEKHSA
# experiment description: PI3Kγ-dependent cell-based assay: C5a-mediated AKT phosphorylation in RAW-264 cells
# run parameters: C5a-induced AKT phosphorylation, RAW-264 macrophages
pEC50: −log10 of the molar value.
parameter: pEC50

compound | pEC50
Cc1cccc2nc(C(C)Nc3ncnc4[nH]cnc34)c(-c3ccc(F)cc3)nc12 (stereo not shown) | 5.45

[1] CC(Nc1ncnc2[nH]cnc12)c1nc2ccccc2nc1-c1ccccc1 (stereo not shown)
[2] Cc1cccc2nc(C(C)Nc3nc(N)nc4[nH]cnc34)c(-c3ccc(F)cc3)nc12 (stereo not shown)
[3] Cc1cccc2nc(C(C)Nc3nc(N)nc4[nH]cnc34)c(-c3ccccc3)nc12 (stereo not shown)
Q: # sort list by recorded pEC50, greatest to least Give me the labels in the order the question wants.
Ans: 3, 2, 1
(3: 6.46, 2: 6.20, 1: 5.34)

* * *

# subject of test: PI3Kβ (p110β/p85α) (Homo sapiens, UniProt P42338)
# Construct: purchased Invitrogen
# Sequence (P42338 whole entry): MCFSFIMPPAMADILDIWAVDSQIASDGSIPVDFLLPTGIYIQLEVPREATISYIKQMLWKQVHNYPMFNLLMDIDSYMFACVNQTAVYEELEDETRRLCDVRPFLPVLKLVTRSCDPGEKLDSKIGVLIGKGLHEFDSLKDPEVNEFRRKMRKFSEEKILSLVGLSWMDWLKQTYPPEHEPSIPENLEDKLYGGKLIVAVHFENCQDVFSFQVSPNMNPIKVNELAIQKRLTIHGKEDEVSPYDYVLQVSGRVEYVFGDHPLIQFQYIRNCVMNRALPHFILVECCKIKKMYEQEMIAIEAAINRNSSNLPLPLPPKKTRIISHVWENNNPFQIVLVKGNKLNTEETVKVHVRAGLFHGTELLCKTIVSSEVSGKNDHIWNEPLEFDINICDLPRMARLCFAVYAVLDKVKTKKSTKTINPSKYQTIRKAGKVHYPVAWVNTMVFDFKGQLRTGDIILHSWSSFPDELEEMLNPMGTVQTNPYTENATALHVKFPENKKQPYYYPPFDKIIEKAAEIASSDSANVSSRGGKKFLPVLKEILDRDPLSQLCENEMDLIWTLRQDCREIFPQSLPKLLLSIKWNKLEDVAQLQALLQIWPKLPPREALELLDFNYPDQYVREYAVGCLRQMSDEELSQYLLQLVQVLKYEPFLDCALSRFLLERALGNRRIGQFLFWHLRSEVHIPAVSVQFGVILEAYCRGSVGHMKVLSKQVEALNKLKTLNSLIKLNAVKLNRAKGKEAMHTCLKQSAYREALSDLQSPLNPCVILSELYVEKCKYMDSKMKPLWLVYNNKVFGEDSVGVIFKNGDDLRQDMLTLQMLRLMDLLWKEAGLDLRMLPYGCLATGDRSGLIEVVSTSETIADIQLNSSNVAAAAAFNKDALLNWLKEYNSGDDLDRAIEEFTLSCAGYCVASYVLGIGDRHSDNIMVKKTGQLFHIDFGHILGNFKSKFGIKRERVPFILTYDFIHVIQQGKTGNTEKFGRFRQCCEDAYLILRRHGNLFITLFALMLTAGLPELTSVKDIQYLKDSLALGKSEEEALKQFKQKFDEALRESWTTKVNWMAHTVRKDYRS
# Sequence (P27986 whole entry partner): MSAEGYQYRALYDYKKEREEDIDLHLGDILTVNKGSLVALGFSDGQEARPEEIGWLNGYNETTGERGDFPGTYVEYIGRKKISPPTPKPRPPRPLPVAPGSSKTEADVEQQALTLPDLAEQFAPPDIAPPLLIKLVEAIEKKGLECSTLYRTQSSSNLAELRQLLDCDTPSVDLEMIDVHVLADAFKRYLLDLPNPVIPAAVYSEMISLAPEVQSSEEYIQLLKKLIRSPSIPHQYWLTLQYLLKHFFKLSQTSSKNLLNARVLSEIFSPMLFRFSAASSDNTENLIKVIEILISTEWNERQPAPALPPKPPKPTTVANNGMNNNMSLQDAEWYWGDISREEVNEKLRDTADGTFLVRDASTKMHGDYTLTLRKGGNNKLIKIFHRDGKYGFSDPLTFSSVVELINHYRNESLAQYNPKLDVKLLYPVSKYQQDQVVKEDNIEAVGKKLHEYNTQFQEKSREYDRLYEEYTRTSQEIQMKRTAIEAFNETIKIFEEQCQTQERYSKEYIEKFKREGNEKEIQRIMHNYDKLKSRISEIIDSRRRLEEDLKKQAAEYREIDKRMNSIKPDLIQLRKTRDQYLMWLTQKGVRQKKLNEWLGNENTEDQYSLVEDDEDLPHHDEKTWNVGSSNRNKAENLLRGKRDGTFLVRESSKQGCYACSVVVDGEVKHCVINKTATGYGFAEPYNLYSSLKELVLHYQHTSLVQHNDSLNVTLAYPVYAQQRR
# experiment description: PI3K biochemical enzyme assay (Adapta universal kinase assay), p110 beta/p85 alpha
# run parameters: 10 μM; read-out: PI3Kβ % inhib
parameter: inhibition at 10 µM (%)

Look over these answered cases.
compound | parameter | readout number
CCC(Nc1ncnc2[nH]cnc12)c1nc2cccc(C)c2nc1-c1ccccc1 (stereo not shown) | inhibition at 10 µM | 53
CCC(Nc1ncnc2[nH]cnc12)c1nc2cccc(F)c2nc1-c1ccccc1 (stereo not shown) | inhibition at 10 µM | 60
CC(Nc1ncnc2[nH]cnc12)c1nc2ccccc2nc1-c1ccccc1 (stereo not shown) | inhibition at 10 µM | 72
Cc1cccc2nc(C(C)Nc3ncnc4[nH]cnc34)c(-c3ccc(F)cc3)nc12 (stereo not shown) | inhibition at 10 µM | 77
Cc1cccc2nc(C(C)Nc3nc(N)nc4[nH]cnc34)c(-c3ccc(F)cc3)nc12 (stereo not shown) | inhibition at 10 µM | 85

[P] Cc1cccc2nc(C(C)Nc3nc(N)nc4[nH]cnc34)c(-c3ccccc3)nc12 (stereo not shown)
[Q] CC(Nc1ncnc2[nH]cnc12)c1nc2ccccc2nc1-c1cc(F)cc(F)c1 (stereo not shown)
Q: Thinking about recorded inhibition at 10 µM values, which is higher, P or Q ? Give the label of your selection.
Ans: P

* * *

# subject of test: PI3Kα (p110α/p85α) (Homo sapiens, UniProt P42336)
# Construct: purchased Invitrogen
# Sequence (P42336 whole entry): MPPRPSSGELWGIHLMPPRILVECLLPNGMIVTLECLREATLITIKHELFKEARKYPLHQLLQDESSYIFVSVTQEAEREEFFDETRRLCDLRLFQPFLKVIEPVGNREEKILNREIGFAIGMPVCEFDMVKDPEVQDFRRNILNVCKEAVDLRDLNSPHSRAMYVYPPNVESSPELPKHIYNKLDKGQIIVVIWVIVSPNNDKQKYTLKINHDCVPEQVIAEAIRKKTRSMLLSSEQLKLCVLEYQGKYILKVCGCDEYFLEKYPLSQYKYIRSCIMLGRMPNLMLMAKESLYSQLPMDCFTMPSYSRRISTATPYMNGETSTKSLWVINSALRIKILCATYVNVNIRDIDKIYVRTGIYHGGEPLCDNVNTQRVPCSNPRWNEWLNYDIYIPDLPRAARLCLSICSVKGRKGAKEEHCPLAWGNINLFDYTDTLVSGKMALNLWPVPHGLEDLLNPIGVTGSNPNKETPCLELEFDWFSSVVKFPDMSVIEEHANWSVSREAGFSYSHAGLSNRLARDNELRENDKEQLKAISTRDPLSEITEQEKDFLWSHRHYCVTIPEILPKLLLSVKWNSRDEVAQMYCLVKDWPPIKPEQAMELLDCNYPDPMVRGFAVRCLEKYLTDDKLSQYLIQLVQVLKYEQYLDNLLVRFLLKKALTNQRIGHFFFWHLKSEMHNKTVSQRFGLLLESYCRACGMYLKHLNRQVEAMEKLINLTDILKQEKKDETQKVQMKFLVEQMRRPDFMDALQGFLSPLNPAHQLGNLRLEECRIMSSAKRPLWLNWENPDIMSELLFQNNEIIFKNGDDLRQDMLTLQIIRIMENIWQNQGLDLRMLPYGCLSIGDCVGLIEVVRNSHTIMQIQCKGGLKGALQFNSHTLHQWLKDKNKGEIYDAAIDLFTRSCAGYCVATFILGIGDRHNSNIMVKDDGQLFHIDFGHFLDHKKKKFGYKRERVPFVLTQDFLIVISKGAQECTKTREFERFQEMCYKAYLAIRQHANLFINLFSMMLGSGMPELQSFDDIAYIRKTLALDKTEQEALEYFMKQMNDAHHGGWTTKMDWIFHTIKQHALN
# Sequence (P27986 whole entry partner): as the sequence (P27986 whole entry partner) above
# experiment description: PI3K biochemical enzyme assay (Adapta universal kinase assay), p110 alpha/p85 alpha
# run parameters: Table 1, lower part; read-out: PI3Kα IC50
parameter: IC50 (µM)

[A] c1ccc(-c2nc3ccccc3nc2CNc2ncnc3[nH]cnc23)cc1
[B] Nc1nc(NCc2nc3ccccc3nc2-c2ccccc2)c2nc[nH]c2n1
Q: Min IC50? A | B Give the chosen item's label as your response.
Ans: A
(A: 51 µM, B: 100 µM)

* * *

# subject of test: PI3Kγ (p110 gamma) (Homo sapiens)
# Construct: purchased Invitrogen
# Sequence (P48736 whole entry): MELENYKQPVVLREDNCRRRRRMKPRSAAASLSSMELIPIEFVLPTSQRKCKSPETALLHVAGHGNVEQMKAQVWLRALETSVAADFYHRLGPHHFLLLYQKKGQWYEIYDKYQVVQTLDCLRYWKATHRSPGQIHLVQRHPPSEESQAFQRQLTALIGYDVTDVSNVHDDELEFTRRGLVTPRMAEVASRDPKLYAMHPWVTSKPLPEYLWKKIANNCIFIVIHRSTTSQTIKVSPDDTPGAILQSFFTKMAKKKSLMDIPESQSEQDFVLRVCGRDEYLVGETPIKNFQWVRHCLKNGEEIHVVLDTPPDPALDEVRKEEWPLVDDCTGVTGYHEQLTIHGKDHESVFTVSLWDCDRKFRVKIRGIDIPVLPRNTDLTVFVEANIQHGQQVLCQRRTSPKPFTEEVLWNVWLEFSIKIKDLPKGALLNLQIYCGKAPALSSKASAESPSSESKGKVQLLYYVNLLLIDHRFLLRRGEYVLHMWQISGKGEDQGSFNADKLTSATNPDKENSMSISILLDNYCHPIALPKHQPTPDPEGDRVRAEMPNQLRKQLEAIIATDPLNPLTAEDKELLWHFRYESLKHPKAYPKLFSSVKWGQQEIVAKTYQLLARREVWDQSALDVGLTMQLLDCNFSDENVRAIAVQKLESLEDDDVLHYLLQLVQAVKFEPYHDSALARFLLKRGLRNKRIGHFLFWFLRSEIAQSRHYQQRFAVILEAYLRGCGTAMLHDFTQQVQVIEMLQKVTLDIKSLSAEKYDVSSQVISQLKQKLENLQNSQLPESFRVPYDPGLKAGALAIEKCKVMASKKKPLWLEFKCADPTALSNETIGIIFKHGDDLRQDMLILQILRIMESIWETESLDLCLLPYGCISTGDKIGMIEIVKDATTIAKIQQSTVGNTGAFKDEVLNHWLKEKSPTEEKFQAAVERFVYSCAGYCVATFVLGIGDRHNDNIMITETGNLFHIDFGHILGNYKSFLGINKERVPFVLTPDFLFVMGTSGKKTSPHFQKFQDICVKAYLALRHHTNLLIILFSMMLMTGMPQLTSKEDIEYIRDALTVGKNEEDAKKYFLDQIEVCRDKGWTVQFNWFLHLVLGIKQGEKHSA
# experiment description: PI3K biochemical enzyme assay (Adapta universal kinase assay), p110 gamma
# run parameters: 1 μM; read-out: PI3Kγ % inhib
parameter: inhibition at 1 µM (%)

For orientation, consider the following solved cases.
compound | inhibition at 1 µM [%]
CC(Nc1ncnc2[nH]cnc12)c1nc2ccccc2nc1-c1cc(F)cc(F)c1 (stereo not shown) | 42
CC(Nc1ncnc2[nH]cnc12)c1nc2ccccc2nc1-c1ccccc1 (stereo not shown) | 78

[1] CCC(Nc1ncnc2[nH]cnc12)c1nc2cccc(C)c2nc1-c1ccccc1 (stereo not shown)
[2] Cc1cccc2nc(C(C)Nc3nc(N)nc4[nH]cnc34)c(-c3ccc(F)cc3)nc12 (stereo not shown)
Q: # return whichever of 1 and 2 has the smaller inhibition at 1 µM # reply format: chosen label
Ans: 1
